Origin of values: patent US8357687B2

# protocol details: Pharmacokinetic analysis after single oral administration
# Assay type: in vivo
# condition: rat, liver/plasma; male Sprague-Dawley rats, single oral dose 10 mg/kg, 7 h post dosing; read-out: Lever/plasma ratio
endpoint name: Kp at 7 h
Form field (numeric): enter value without unit.

Requested field: Kp at 7 h. Item: CN1CCCCN(C)S(=O)(=O)NC(=O)c2ccc3c(C4CCCCC4)c(n(C)c3c2)-c2ccccc2OCC1=O [Compound 15]
99

Requested field: Kp at 7 h. Item: CN1CCOCCN(C)S(=O)(=O)NC(=O)c2ccc3c(C4CCCCC4)c(n(C)c3c2)-c2ccccc2OCC1=O [Compound 10]
64

====

# target or test system: HCV NS5B polymerase (NS5BΔC21) (Hepatitis C virus genotype 1b)
# Construct: NS5B (genotype 1b consensus strain Con1) lacking 21 C-terminal residues
# protocol details: RNA-dependent RNA polymerase assay (enzyme inhibition assay)
endpoint name: IC50 (nM)
The reply should contain only the number, in nM.

Param readout = IC50; param system = HCV NS5B polymerase (NS5BΔC21) (Hepatitis C virus genotype 1b); param query = CN1CCCCCNC(=O)COc2ccc(F)cc2-c2c(C3CCCCC3)c3ccc(cc3n2C)C(=O)NS1(=O)=O [Compound 51] ; response: value
88

Param readout = IC50; param system = HCV NS5B polymerase (NS5BΔC21) (Hepatitis C virus genotype 1b); param query = CC(C)n1c2c(C3CCCCC3)c3ccc(cc31)C(=O)NS(=O)(=O)N(C)CCOCCN(C)C(=O)COc1ccccc1-2 [Compound 52] ; response: value
1660

Param readout = IC50; param system = HCV NS5B polymerase (NS5BΔC21) (Hepatitis C virus genotype 1b); param query = CN1CCCCN(C)S(=O)(=O)NC(=O)c2ccc3c(C4CCCCC4)c(n(C4CCCC4)c3c2)-c2ccccc2OCC1=O [Compound 40] ; response: value
1090

Param readout = IC50; param system = HCV NS5B polymerase (NS5BΔC21) (Hepatitis C virus genotype 1b); param query = CN1CCN2CCN(CC2)C(=O)COc2ccccc2-c2c(C3CCCCC3)c3ccc(cc3n2C)C(=O)NS1(=O)=O [Compound 22] ; response: value
181
